Experiment: Metabolic stability in mouse liver microsomes assessed as intrinsic clearance
Type: ADME, Microsome
Details: read-out: CLH

- molecule: "CCCCCC[Si](C)(C)c1cc(OC)c([C@H]2C=C(CO)[C@H]3C[C@@H]2C3(C)C)c(OC)c1"
  CLint scaled: "173 mL/min/kg"
- molecule: "C=C(C)[C@@H]1CCC(C)=C[C@H]1c1c(O)cc([Si](C)(C)CCCCCC)cc1O"
  CLint scaled: "128 mL/min/kg"
- molecule: "C=C(C)[C@@H]1CCC(C)=C[C@H]1c1c(O)cc(CCCCC)cc1O [CANNABIDIOL]"
  CLint scaled: "1720 mL/min/kg"
- molecule: "CCCCCCC(C)(C)c1cc(OC)c([C@H]2C=C(CO)[C@H]3C[C@@H]2C3(C)C)c(OC)c1"
  CLint scaled: "696 mL/min/kg"

====

Target: Cannabinoid receptor 2 (Homo sapiens)
Sequence (P34972 whole entry): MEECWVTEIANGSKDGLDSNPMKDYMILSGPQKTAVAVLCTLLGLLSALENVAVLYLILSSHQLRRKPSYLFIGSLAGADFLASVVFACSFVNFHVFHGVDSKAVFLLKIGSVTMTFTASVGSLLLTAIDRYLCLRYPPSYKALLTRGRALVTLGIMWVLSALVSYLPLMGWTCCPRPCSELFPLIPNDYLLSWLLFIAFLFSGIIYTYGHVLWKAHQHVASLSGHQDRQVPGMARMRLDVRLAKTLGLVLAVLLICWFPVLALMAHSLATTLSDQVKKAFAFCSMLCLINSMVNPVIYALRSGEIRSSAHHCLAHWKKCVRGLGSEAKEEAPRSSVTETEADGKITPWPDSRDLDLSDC
Experiment: Agonist activity at recombinant human CB2 receptor expressed in CHO cells assessed as inhibition of forskolin-induced cAMP accumulation by measuring maximum efficacy preincubated for 15 mins followed by forskolin stimulation and measured after 15 mins by HTRF assay relative to control
Format: functional, cell-based
Settings: filed as agonist, time 30.0 min
attributeMeasured: Emax (%)

- smilesString: "CCCCCC[Si](C)(C)c1cc(O)c2c(c1)OC(C)(C)c1ccc(CO)cc1-2"
  valueUnit: "%"
  recordedNumber: 92.7
- smilesString: "CCCC[Si](C)(C)c1cc(O)c2c(c1)OC(C)(C)[C@@H]1CCC(C)=C[C@@H]21"
  valueUnit: "%"
  recordedNumber: 95.4
- smilesString: "C=C(C)[C@@H]1CCC(C)=C[C@H]1c1c(O)cc([Si](C)(C)CCCCCC)cc1O"
  valueUnit: "%"
  recordedNumber: 75.6
- smilesString: "CCCCCC[Si](C)(C)c1cc(O)c(C2CCCCC2)c(O)c1"
  valueUnit: "%"
  recordedNumber: 95.5
- smilesString: "CCCCCC[Si](C)(C)c1cc(O)c2c(c1)OC(C)(C)[C@@H]1CCC(C)=C[C@@H]21"
  valueUnit: "%"
  recordedNumber: 90.2
- smilesString: "CCCC[Si](C)(C)c1cc(O)c(C2CCCCC2)c(OC)c1"
  valueUnit: "%"
  recordedNumber: 90.4
- smilesString: "CCCC[Si](C)(C)c1cc(OC)c([C@H]2C=C(CO)[C@H]3C[C@@H]2C3(C)C)c(OC)c1"
  valueUnit: "%"
  recordedNumber: 83.6
- smilesString: "CCCCCC[Si](C)(C)c1cc(OC)c([C@H]2C=C(CO)[C@H]3C[C@@H]2C3(C)C)c(OC)c1"
  valueUnit: "%"
  recordedNumber: 90.6
- smilesString: "CCCC[Si](C)(C)c1cc(O)c(C2CCCCC2)c(O)c1"
  valueUnit: "%"
  recordedNumber: 95.2
- smilesString: "CCCC[Si](C)(C)c1cc(O)c2c(c1)OC(C)(C)c1ccc(CO)cc1-2"
  valueUnit: "%"
  recordedNumber: 92.8
- smilesString: "CCCC[Si](C)(C)c1cc(O)c2c(c1)OC(C)(C)c1ccc(C)cc1-2"
  valueUnit: "%"
  recordedNumber: 90.4
- smilesString: "CCCCCCC(C)(C)c1cc(OC)c([C@H]2C=C(CO)[C@H]3C[C@@H]2C3(C)C)c(OC)c1"
  valueUnit: "%"
  recordedNumber: 101
- smilesString: "CCCC[Si](C)(C)c1cc(O)c(C2CCCCCC2)c(OC)c1"
  valueUnit: "%"
  recordedNumber: 93.3
- smilesString: "CCCCCC[Si](C)(C)c1cc(O)c([C@H]2C=C(CO)[C@H]3C[C@@H]2C3(C)C)c(O)c1"
  valueUnit: "%"
  recordedNumber: 94.1
- smilesString: "CCCCCC[Si](C)(C)c1cc(O)c(C2CCCCCC2)c(OC)c1"
  valueUnit: "%"
  recordedNumber: 98.7
- smilesString: "CCCC[Si](C)(C)c1cc(O)c(C2CCCC2)c(OC)c1"
  valueUnit: "%"
  recordedNumber: 85.4

====

Experiment: Metabolic stability in rat liver microsomes assessed as intrinsic clearance
Format: ADME, Microsome
Conditions: read-out: CLH
A collection of compounds and their measured CLint scaled

- compound: "CCCCCC[Si](C)(C)c1cc(OC)c([C@H]2C=C(CO)[C@H]3C[C@@H]2C3(C)C)c(OC)c1"
  CLint scaled: "2.53 L/h/kg"
- compound: "C=C(C)[C@@H]1CCC(C)=C[C@H]1c1c(O)cc(CCCCC)cc1O [CANNABIDIOL]"
  CLint scaled: "294 L/h/kg"
- compound: "C=C(C)[C@@H]1CCC(C)=C[C@H]1c1c(O)cc([Si](C)(C)CCCCCC)cc1O"
  CLint scaled: "19.1 L/h/kg"
- compound: "CCCCCCC(C)(C)c1cc(OC)c([C@H]2C=C(CO)[C@H]3C[C@@H]2C3(C)C)c(OC)c1"
  CLint scaled: "8.2 L/h/kg"

====

Target: Cannabinoid receptor 1 (Homo sapiens, UniProt P21554)
Sequence (P21554 whole entry): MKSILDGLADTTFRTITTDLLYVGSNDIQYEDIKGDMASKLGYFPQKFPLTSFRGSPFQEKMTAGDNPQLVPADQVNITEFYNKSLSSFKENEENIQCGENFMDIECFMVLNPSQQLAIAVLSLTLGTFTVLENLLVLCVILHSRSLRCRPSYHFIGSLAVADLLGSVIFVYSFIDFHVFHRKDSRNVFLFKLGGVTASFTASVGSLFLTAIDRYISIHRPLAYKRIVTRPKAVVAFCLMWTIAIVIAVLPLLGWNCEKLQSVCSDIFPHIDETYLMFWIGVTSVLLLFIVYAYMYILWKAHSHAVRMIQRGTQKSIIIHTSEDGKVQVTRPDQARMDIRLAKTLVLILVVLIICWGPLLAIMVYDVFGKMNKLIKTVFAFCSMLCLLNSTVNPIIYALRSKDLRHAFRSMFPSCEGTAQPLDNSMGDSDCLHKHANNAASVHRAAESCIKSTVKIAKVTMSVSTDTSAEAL
Assay: Displacement of [3H]-CP55940 from recombinant human CB1 receptor expressed in CHO cells assessed as inhibition constant incubated for 120 mins by radioligand binding assay
pKi: −log10 of the molar value.
attributeMeasured: pKi

- smilesString: "CCCC[Si](C)(C)c1cc(OC)c([C@H]2C=C(CO)[C@H]3C[C@@H]2C3(C)C)c(OC)c1"
  targetOrSystem: "Cannabinoid receptor 1 (Homo sapiens, UniProt P21554)"
  attributeMeasured: "pKi"
  recordedNumber: 6.34
- smilesString: "CCCCCC[Si](C)(C)c1cc(O)c2c(c1)OC(C)(C)c1ccc(CO)cc1-2"
  targetOrSystem: "Cannabinoid receptor 1 (Homo sapiens, UniProt P21554)"
  attributeMeasured: "pKi"
  recordedNumber: 9.46
- smilesString: "CCCCCC[Si](C)(C)c1cc(O)c(C2CCCCCC2)c(OC)c1"
  targetOrSystem: "Cannabinoid receptor 1 (Homo sapiens, UniProt P21554)"
  attributeMeasured: "pKi"
  recordedNumber: 6.74
- smilesString: "CC[Si](C)(C)c1cc(O)c2c(c1)OC(C)(C)[C@@H]1CCC(C)=C[C@@H]21"
  targetOrSystem: "Cannabinoid receptor 1 (Homo sapiens, UniProt P21554)"
  attributeMeasured: "pKi"
  recordedNumber: 7.71

====

Experiment: Metabolic stability in human liver microsomes assessed as half life
Assay type: ADME, Microsome
// values below are reported half-life

- molecule: "CCCCCC[Si](C)(C)c1cc(OC)c([C@H]2C=C(CO)[C@H]3C[C@@H]2C3(C)C)c(OC)c1"
  half-life: "49.7 min"
- molecule: "CCCCCCC(C)(C)c1cc(OC)c([C@H]2C=C(CO)[C@H]3C[C@@H]2C3(C)C)c(OC)c1"
  half-life: "20.4 min"
- molecule: "C=C(C)[C@@H]1CCC(C)=C[C@H]1c1c(O)cc(CCCCC)cc1O [CANNABIDIOL]"
  half-life: "4.46 min"
- molecule: "C=C(C)[C@@H]1CCC(C)=C[C@H]1c1c(O)cc([Si](C)(C)CCCCCC)cc1O"
  half-life: "31.5 min"

====

Biological target: Cannabinoid receptor 2 (Homo sapiens)
Test: Displacement of [3H]-CP55940 from recombinant human CB2 receptor expressed in CHO cells assessed as inhibition constant incubated for 120 mins by radioligand binding assay
pKi: −log10 of the molar value.
attributeMeasured: pKi

- smilesString: "CCCC[Si](C)(C)c1cc(O)c2c(c1)OC(C)(C)[C@@H]1CC=C(CO)C[C@@H]21"
  targetOrSystem: "Cannabinoid receptor 2 (Homo sapiens)"
  attributeMeasured: "pKi"
  recordedNumber: 9.19
- smilesString: "CCCC[Si](C)(C)c1cc(OC)c([C@H]2C=C(CO)[C@H]3C[C@@H]2C3(C)C)c(OC)c1"
  targetOrSystem: "Cannabinoid receptor 2 (Homo sapiens)"
  attributeMeasured: "pKi"
  recordedNumber: 6.64
- smilesString: "CCCC[Si](C)(C)c1cc(O)c(C2CCCC2)c(OC)c1"
  targetOrSystem: "Cannabinoid receptor 2 (Homo sapiens)"
  attributeMeasured: "pKi"
  recordedNumber: 6.04
- smilesString: "CCCCCC[Si](C)(C)c1cc(O)c([C@H]2C=C(CO)[C@H]3C[C@@H]2C3(C)C)c(O)c1"
  targetOrSystem: "Cannabinoid receptor 2 (Homo sapiens)"
  attributeMeasured: "pKi"
  recordedNumber: 7.94
- smilesString: "CCCCCC[Si](C)(C)c1cc(O)c2c(c1)OC(C)(C)c1ccc(CO)cc1-2"
  targetOrSystem: "Cannabinoid receptor 2 (Homo sapiens)"
  attributeMeasured: "pKi"
  recordedNumber: 8.90
- smilesString: "CCCCCC[Si](C)(C)c1cc(O)c2c(c1)OC(C)(C)[C@@H]1CC=C(CO)C[C@@H]21"
  targetOrSystem: "Cannabinoid receptor 2 (Homo sapiens)"
  attributeMeasured: "pKi"
  recordedNumber: 9.01
- smilesString: "CCCC[Si](C)(C)c1cc(O)c2c(c1)OC(C)(C)[C@@H]1CCC(C)=C[C@@H]21"
  targetOrSystem: "Cannabinoid receptor 2 (Homo sapiens)"
  attributeMeasured: "pKi"
  recordedNumber: 8.83
- smilesString: "CCCC[Si](C)(C)c1cc(O)c2c(c1)OC(C)(C)c1ccc(CO)cc1-2"
  targetOrSystem: "Cannabinoid receptor 2 (Homo sapiens)"
  attributeMeasured: "pKi"
  recordedNumber: 8.46
- smilesString: "CCCC[Si](C)(C)c1cc(O)c(C2CCCC2)c(O)c1"
  targetOrSystem: "Cannabinoid receptor 2 (Homo sapiens)"
  attributeMeasured: "pKi"
  recordedNumber: 6.43
- smilesString: "CCCCCC[Si](C)(C)c1cc(O)c(C2CCCCC2)c(OC)c1"
  targetOrSystem: "Cannabinoid receptor 2 (Homo sapiens)"
  attributeMeasured: "pKi"
  recordedNumber: 6.78
- smilesString: "CCCCCC[Si](C)(C)c1cc(O)c(C2CCCC2)c(O)c1"
  targetOrSystem: "Cannabinoid receptor 2 (Homo sapiens)"
  attributeMeasured: "pKi"
  recordedNumber: 7.37
